Test system: CTLL-2 cells
Experiment: Cell growth activity assay (MTS), CTLL-2 cell model
Assay type: cell-based, mouse
Settings: Mus musculus, CTLL-2, 300 nM, 24 h, read-out: CTLL-2 % growth rate @300 nM
Use 1 when the recorded activity at 0.3 µM is no lower than 30%; use -1 when it is lower.

# example entries with known answers
C=CC(=O)N(C)c1cc(Nc2ncc(Cl)c(NCCCNC(=O)Cc3ccc(C#N)cc3)n2)ccc1F [Example 64]: 1
C=CC(=O)N(C)c1cc(Nc2ncc(Cl)c(NCCCNC(=O)c3cc(F)c(F)c(F)c3F)n2)ccc1F [Example 107]: -1
C=CC(=O)Nc1cc(Nc2ncc(Cl)c(NCCCNC(=O)c3ccc(C(F)(F)F)cc3)n2)ccc1F [Example 13]: 1

Textbook exercise: given the entry C=CC(=O)N(C)c1cc(Nc2ncc(Cl)c(NCCCNC(=O)c3ccc(C(F)(F)F)c(F)c3)n2)ccc1F [Example 103] , state whether its activity at 0.3 µM is greater than or equal to 30%.
-1

Textbook exercise: given the entry C=CC(=O)N(C)c1cc(Nc2ncc(Cl)c(NCCCNC(=O)c3ccc(C(F)F)cc3)n2)ccc1F [Example 115] , state whether its activity at 0.3 µM is greater than or equal to 30%.
-1

Textbook exercise: given the entry C=CC(=O)N(C)c1cc(Nc2ncc(Cl)c(NCCCNC(=O)c3ccc(O)cc3)n2)ccc1F [Example 48] , state whether its activity at 0.3 µM is greater than or equal to 30%.
1

Textbook exercise: given the entry C=CC(=O)N(C)c1cc(Nc2ncc(Cl)c(NCCCNC(=O)c3ccc(C(F)(F)F)cc3)n2)ccc1F [Example 22] , state whether its activity at 0.3 µM is greater than or equal to 30%.
-1

Textbook exercise: given the entry C=CC(=O)N(C)c1cc(Nc2ncc(F)c(NCCCNC(=O)c3ccc(C#N)cc3)n2)ccc1F [Example 60] , state whether its activity at 0.3 µM is greater than or equal to 30%.
1

Textbook exercise: given the entry C=CC(=O)N(C)c1cc(Nc2ncc(Cl)c(NCCCNC(=O)c3ccc(C#N)cc3F)n2)ccc1F [Example 52] , state whether its activity at 0.3 µM is greater than or equal to 30%.
-1

Textbook exercise: given the entry C=CC(=O)Nc1cc(Nc2ncc(Cl)c(NCCCNC(=O)c3ccc(C#N)cc3)n2)ccc1F [Example 28] , state whether its activity at 0.3 µM is greater than or equal to 30%.
1

Textbook exercise: given the entry C=CC(=O)N(C)c1cc(Nc2ncc(C)c(NCCCNC(=O)c3ccc(F)cc3)n2)ccc1F [Example 19] , state whether its activity at 0.3 µM is greater than or equal to 30%.
1

Textbook exercise: given the entry C=CC(=O)N(C)c1cc(Nc2ncc(Cl)c(NCCCNC(=O)c3cccc(C(F)(F)F)c3)n2)ccc1F [Example 91] , state whether its activity at 0.3 µM is greater than or equal to 30%.
-1

Textbook exercise: given the entry C=CC(=O)N(C)c1cc(Nc2ncc(Cl)c(NCCCNC(=O)c3ccc(C#N)nc3)n2)ccc1F [Example 44] , state whether its activity at 0.3 µM is greater than or equal to 30%.
-1

Textbook exercise: given the entry C=CC(=O)N(C)c1cc(Nc2ncc(Cl)c(NCCCNC(=O)c3ccc(F)cc3)n2)ccc1F [Example 23] , state whether its activity at 0.3 µM is greater than or equal to 30%.
-1

Textbook exercise: given the entry C=CC(=O)N(C)c1cc(Nc2ncc(Cl)c(NCCCNC(=O)c3ccccc3)n2)ccc1F [Example 87] , state whether its activity at 0.3 µM is greater than or equal to 30%.
-1

Textbook exercise: given the entry C=CC(=O)N(C)c1cc(Nc2ncc(C)c(NCCCNC(=O)c3ccc(C#N)cc3)n2)ccc1F [Example 58] , state whether its activity at 0.3 µM is greater than or equal to 30%.
1

Textbook exercise: given the entry C=CC(=O)N(C)c1cc(Nc2ncc(Cl)c(NCCCNC(=O)c3ccc(C)cc3)n2)ccc1F [Example 83] , state whether its activity at 0.3 µM is greater than or equal to 30%.
-1

Textbook exercise: given the entry C=CC(=O)N(C)c1cc(Nc2ncc(Cl)c(NCCCNC(=O)c3cccc(C#N)c3)n2)ccc1F [Example 95] , state whether its activity at 0.3 µM is greater than or equal to 30%.
-1

Textbook exercise: given the entry C=CC(=O)N(C)c1cc(Nc2ncc(Cl)c(NCCCNC(=O)c3c(F)cc(F)cc3F)n2)ccc1F [Example 36] , state whether its activity at 0.3 µM is greater than or equal to 30%.
1

Textbook exercise: given the entry C=CC(=O)N(C)c1cc(Nc2ncc(Cl)c(NCCCNS(=O)(=O)c3ccc(C#N)cc3)n2)ccc1F [Example 68] , state whether its activity at 0.3 µM is greater than or equal to 30%.
1

Textbook exercise: given the entry C=CC(=O)N(C)c1cc(Nc2ncc(Cl)c(NCCCNC(=O)c3ccc(OC)cc3)n2)ccc1F [Example 40] , state whether its activity at 0.3 µM is greater than or equal to 30%.
1

Textbook exercise: given the entry C=CC(=O)N(C)c1cc(Nc2ncc(Cl)c(NCCCNC(=O)c3ccc(N(C)C)cc3)n2)ccc1F [Example 32] , state whether its activity at 0.3 µM is greater than or equal to 30%.
-1

---

Target: JAK2 (Homo sapiens (Human))
Sequence (O60674 whole entry): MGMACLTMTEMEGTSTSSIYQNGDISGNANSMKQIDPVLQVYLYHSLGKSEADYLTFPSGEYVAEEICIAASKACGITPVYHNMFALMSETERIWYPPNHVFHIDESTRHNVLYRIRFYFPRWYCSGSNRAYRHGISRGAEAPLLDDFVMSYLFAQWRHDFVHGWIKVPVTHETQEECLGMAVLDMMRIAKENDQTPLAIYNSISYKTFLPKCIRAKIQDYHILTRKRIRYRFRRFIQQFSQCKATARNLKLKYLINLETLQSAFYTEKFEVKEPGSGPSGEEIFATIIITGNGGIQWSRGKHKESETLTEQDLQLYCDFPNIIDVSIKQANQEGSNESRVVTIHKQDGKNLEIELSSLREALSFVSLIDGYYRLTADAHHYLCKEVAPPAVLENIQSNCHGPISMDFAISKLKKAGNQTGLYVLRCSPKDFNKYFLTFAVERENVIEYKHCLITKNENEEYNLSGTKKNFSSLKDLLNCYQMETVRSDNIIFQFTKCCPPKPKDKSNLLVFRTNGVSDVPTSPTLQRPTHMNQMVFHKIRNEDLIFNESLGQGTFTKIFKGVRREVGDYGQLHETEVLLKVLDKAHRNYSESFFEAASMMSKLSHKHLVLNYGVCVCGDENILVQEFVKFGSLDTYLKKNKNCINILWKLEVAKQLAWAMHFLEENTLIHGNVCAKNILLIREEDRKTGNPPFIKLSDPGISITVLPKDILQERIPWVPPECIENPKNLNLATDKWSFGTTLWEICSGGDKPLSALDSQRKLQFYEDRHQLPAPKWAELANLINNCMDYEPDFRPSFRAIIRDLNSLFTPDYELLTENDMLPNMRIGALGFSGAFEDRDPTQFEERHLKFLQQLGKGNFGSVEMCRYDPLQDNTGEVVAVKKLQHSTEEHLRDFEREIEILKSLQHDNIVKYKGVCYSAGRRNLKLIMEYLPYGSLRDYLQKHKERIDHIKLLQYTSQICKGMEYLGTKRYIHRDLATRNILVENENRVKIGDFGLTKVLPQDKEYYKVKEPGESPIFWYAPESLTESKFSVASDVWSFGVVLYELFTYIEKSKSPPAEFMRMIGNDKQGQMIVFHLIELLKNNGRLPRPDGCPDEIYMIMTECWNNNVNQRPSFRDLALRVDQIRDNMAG
Assay: Z'-LYTE enzymatic activity detection, JAK2
Type: biochemical
Settings: test compound 30 nM
Use met when the recorded JAK2 RV (ratio between the inhibitory rate of the test compound and that of Xeljanz) is no lower than 0.03; use not met when it is lower.

# example entries with known answers
C=CC(=O)N(C)c1cc(Nc2ncc(Cl)c(NCCCNC(=O)c3ccc(C#N)cc3)n2)ccc1F: met
C=CC(=O)N(C)c1cc(Nc2ncc(C)c(NCCCNC(=O)c3ccc(C(F)(F)F)cc3)n2)ccc1F: met
C=CC(=O)N(C)c1cc(Nc2ncc(Cl)c(NCCCNC(=O)c3ccc(C)cc3)n2)ccc1F: met

Textbook exercise: given the entry `C=CC(=O)N(C)c1cc(Nc2ncc(Cl)c(OCCCNC(=O)c3ccc(C#N)cc3)n2)ccc1F` , state whether its JAK2 RV (ratio between the inhibitory rate of the test compound and that of Xeljanz) is greater than or equal to 0.03.
not met

---

Target: Flt4 (Homo sapiens (Human), UniProt P35916)
Sequence (P35916 25-1363, species assumed): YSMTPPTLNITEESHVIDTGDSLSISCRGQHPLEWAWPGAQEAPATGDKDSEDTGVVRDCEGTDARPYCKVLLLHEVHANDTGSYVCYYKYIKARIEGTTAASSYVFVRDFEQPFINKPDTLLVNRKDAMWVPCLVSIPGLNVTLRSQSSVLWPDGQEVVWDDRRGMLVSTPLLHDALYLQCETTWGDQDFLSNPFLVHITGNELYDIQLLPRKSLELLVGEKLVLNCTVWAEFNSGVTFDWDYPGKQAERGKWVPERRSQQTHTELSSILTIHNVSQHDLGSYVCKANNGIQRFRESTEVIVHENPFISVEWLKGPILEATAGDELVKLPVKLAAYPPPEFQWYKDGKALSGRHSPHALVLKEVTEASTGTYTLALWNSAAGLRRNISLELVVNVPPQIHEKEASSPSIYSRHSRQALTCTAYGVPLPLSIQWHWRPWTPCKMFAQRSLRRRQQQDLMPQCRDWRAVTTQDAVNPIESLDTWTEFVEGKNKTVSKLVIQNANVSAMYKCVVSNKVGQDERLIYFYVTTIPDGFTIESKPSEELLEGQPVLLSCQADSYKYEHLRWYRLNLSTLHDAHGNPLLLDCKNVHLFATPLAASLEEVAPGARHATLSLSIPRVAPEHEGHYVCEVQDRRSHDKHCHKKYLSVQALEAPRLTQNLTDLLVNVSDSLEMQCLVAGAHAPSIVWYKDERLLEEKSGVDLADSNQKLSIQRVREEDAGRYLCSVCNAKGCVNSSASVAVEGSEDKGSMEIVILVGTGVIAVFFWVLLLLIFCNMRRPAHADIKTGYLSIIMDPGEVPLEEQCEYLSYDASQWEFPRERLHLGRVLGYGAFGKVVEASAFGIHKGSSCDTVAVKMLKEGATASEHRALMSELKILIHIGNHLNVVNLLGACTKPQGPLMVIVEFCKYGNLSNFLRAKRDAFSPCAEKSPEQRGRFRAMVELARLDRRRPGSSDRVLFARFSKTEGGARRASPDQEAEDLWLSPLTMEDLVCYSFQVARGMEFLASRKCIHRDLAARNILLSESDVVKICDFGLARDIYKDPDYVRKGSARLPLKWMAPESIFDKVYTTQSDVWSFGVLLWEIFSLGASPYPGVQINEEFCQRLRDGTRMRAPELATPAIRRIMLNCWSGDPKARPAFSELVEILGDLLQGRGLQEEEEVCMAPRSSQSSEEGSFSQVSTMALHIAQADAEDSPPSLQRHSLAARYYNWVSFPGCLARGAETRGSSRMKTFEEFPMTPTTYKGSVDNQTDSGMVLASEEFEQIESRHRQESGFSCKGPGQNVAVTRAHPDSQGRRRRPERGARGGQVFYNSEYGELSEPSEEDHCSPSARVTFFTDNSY
Endpoint: pIC50
Would you please state pIC50, meaning minus log10 of the concentration in mol/L, as a bare number?

So what pIC50 did C=CC(=O)N(C)c1cc(Nc2ncc(Cl)c(NCCCNC(=O)c3ccc(C#N)cc3)n2)ccc1F [Example 7] get with Flt4 (Homo sapiens (Human), UniProt P35916)?
6.97

---

Biological target: JAK3 (Homo sapiens (Human))
Sequence (P52333 whole entry): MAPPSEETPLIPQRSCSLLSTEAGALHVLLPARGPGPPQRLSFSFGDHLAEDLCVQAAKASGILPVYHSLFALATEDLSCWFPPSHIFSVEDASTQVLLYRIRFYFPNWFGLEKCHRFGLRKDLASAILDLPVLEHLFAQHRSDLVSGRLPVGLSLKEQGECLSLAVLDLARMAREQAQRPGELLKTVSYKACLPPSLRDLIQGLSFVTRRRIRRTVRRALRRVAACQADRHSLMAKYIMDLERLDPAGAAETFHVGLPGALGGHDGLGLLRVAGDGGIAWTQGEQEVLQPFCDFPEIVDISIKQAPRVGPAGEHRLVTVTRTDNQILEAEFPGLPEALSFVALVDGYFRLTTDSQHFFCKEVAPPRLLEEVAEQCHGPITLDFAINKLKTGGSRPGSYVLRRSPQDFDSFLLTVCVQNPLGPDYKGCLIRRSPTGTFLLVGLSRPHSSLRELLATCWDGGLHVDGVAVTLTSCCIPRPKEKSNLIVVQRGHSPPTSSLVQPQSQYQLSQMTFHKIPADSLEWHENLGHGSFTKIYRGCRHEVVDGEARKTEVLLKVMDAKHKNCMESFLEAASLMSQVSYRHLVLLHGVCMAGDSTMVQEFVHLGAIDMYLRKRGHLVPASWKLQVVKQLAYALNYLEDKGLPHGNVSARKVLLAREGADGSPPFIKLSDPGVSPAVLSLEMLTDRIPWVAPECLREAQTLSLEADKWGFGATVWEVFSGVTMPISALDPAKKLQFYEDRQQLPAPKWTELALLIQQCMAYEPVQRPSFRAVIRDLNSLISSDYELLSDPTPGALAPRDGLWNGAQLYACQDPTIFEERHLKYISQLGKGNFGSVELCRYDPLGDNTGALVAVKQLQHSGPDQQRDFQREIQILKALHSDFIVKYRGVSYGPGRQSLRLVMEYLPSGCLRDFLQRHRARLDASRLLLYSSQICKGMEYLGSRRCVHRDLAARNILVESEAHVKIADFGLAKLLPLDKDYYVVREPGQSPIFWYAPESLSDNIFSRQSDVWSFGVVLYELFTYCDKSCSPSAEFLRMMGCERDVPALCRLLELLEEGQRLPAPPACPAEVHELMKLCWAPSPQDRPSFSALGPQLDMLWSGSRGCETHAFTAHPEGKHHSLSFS
Assay: Z'-LYTE enzymatic activity detection, JAK3
Type: biochemical
Conditions: test compound 30 nM; read-out: JAK3 % inhibitory rate @30 nM
Endpoint: inhibition at 0.03 µM (%)
Only the number, expressed in %, is required.

C=CC(=O)N(C)c1cc(Nc2ncc(Cl)c(NCCCNC(=O)c3cccc(C(F)(F)F)c3)n2)ccc1F: 82
C=CC(=O)N(C)c1cc(Nc2ncc(C)c(NCCCNC(=O)c3ccc(F)cc3)n2)ccc1F: 59
C=CC(=O)N(C)c1cc(Nc2ncc(Cl)c(NCCCNC(=O)c3ccc(C)cc3)n2)ccc1F: 76

// next item, inhibition at 0.03 µM requested
For the compound shown here, `C=CC(=O)N(C)c1cc(Nc2ncc(Cl)c(NCCCNC(=O)c3ccc(C(F)(F)F)c(F)c3)n2)ccc1F` , give the reported inhibition at 0.03 µM.
86

---

Molecular target: UniProt P23458
Sequence (P23458 whole entry): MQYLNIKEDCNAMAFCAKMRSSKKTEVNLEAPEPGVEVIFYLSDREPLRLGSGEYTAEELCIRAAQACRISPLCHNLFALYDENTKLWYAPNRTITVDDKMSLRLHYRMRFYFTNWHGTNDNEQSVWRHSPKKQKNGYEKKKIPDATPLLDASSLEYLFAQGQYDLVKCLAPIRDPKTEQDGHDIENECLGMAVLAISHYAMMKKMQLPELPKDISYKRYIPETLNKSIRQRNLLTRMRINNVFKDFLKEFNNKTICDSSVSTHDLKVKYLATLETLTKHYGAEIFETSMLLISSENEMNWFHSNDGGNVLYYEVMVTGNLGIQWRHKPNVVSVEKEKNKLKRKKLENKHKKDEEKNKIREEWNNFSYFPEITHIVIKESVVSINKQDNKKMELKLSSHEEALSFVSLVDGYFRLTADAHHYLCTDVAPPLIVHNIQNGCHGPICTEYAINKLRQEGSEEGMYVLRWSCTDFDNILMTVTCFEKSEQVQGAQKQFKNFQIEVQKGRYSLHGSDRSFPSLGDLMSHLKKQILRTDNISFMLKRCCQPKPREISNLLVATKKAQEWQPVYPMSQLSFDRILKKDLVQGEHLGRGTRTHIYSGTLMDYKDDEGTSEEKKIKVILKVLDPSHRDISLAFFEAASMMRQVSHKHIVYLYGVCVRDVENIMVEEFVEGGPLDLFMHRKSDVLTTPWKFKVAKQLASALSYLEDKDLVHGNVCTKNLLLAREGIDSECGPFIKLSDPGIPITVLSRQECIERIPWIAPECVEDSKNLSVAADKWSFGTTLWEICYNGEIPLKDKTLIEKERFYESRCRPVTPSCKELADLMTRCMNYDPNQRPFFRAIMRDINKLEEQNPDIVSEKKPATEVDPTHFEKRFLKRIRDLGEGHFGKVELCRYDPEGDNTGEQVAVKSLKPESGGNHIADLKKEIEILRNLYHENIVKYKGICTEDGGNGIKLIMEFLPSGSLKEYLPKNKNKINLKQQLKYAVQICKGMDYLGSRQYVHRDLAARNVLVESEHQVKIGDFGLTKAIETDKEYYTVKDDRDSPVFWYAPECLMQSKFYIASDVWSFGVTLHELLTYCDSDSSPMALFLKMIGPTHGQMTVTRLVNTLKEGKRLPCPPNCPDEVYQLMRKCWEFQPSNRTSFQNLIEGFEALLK
Assay: Z'-LYTE enzymatic activity detection, JAK1
Assay type: biochemical
Settings: test compound 300 nM; read-out: JAK1 % inhibitory rate @300 nM
Endpoint: inhibition at 0.3 µM (%)
Only the number, expressed in %, is required.

Some solved cases for reference:
C=CC(=O)N(C)c1cc(Nc2ncc(C)c(NCCCNC(=O)c3ccc(F)cc3)n2)ccc1F: 39
C=CC(=O)N(C)c1cc(Nc2ncc(Cl)c(NCCCNC(=O)c3ccc(C)cc3)n2)ccc1F: 36
C=CC(=O)N(C)c1cc(Nc2ncc(Cl)c(NCCCNC(=O)c3ccc(C(F)(F)F)cc3)n2)ccc1F: 18
C=CC(=O)N(C)c1cc(Nc2ncc(Cl)c(NCCCNC(=O)c3ccc(C#N)nc3)n2)ccc1F: 58
C=CC(=O)N(C)c1cc(Nc2ncc(Cl)c(OCCCNC(=O)c3ccc(C#N)cc3)n2)ccc1F: 7
C=CC(=O)N(C)c1cc(Nc2ncc(Cl)c(NCCCNC(=O)c3ccccc3)n2)ccc1F: 43
C=CC(=O)Nc1cc(Nc2ncc(Cl)c(NCCCNC(=O)c3ccc(C#N)cc3)n2)ccc1F: 34
C=CC(=O)N(C)c1cc(Nc2ncc(Cl)c(NCCCNC(=O)Cc3ccc(C#N)cc3)n2)ccc1F: 13
C=CC(=O)N(C)c1cc(Nc2ncc(Cl)c(NCCCNC(=O)c3ccc(N(C)C)cc3)n2)ccc1F: 49
C=CC(=O)N(C)c1cc(Nc2ncc(Cl)c(NCCCNC(=O)c3ccc(O)cc3)n2)ccc1F: 0

// next item, inhibition at 0.3 µM requested
For the molecule shown here, `C=CC(=O)N(C)c1cc(Nc2ncc(Cl)c(NCCCNS(=O)(=O)c3ccc(C#N)cc3)n2)ccc1F` , give the reported inhibition at 0.3 µM.
15

Cited source for all entries: patent US10011571B2
